test-system: D(2) dopamine receptor (Homo sapiens)
Sequence (P14416 whole entry): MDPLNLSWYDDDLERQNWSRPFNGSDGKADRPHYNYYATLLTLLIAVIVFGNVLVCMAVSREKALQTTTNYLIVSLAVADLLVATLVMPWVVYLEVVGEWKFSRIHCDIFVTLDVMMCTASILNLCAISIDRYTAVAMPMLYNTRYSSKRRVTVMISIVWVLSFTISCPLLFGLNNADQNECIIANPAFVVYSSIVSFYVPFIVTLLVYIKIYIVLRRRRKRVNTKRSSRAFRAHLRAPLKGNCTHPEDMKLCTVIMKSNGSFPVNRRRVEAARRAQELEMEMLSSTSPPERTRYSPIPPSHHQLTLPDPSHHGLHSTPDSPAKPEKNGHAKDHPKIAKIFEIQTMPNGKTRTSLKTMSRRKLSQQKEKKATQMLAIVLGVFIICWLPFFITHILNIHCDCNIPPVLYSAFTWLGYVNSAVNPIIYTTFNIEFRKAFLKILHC
procedure-text: Agonist activity at human dopamine D2L receptor expressed in CHO […] assessed as inhibition of forskolin-stimulated cAMP production after 30 mins by Alphascreen assay
Assay type: functional, cell-based
recorded-endpoint: pKA

O=C(N[C@H]1CC[C@H](CCN2CCc3ccccc3C2)CC1)Oc1ccccc1 5.67
CC(=O)N[C@H]1CC[C@H](CCN2CCc3ccccc3C2)CC1 6.85
CN(C)C(=O)N[C@H]1CC[C@@H](CCN2CCc3ccccc3C2)CC1 6.96
CC(C)(C)OC(=O)N[C@H]1CC[C@H](CCN2CCN(c3cccc(Cl)c3Cl)CC2)CC1 7.11
CC(C)(C)OC(=O)Nc1ccc(CCN2CCc3ccccc3C2)cc1 5.95
CC(C)(C)OC(=O)N[C@H]1CC[C@H](CCN2CCc3ccc(C#N)cc3C2)CC1 6.81
CC(C)OC(=O)N[C@H]1CC[C@H](CCN2CCc3ccccc3C2)CC1 6.3
CC(C)(C)OC(=O)N[C@H]1CC[C@H](CN2CCc3ccccc3C2)CC1 7.18
CC(C)(C)OC(=O)N[C@H]1CC[C@H](CN2CCN(c3cccc(Cl)c3Cl)CC2)CC1 6.27
CN(C)C(=O)NC[C@H]1CC[C@H](CN2CCN(c3cccc(Cl)c3Cl)CC2)CC1 6.92
CC(C)(C)NC(=O)N[C@H]1CC[C@H](CCN2CCc3ccccc3C2)CC1 6.72
CC(C)(C)OC(=O)N[C@H]1CC[C@@H](CCN2CCN(c3cccc(Cl)c3Cl)CC2)CC1 6.73
CN(C)C(=O)N[C@H]1CC[C@H](CCN2CCc3ccccc3C2)CC1 7.19
CC(C)COC(=O)N[C@H]1CC[C@H](CCN2CCc3ccccc3C2)CC1 6.05
CC(C)(C)OC(=O)N[C@H]1CC[C@H](CCN2CCc3ccccc3C2)CC1 6.45
CC(C)(C)OC(=O)NC[C@H]1CC[C@H](CN2CCN(c3cccc(Cl)c3Cl)CC2)CC1 6.95
CC(C)(C)OC(=O)NC[C@H]1CC[C@H](CN2CCc3ccccc3C2)CC1 6.82
CC(C)(C)OC(=O)N[C@H]1CC[C@@H](CCN2CCc3ccccc3C2)CC1 7.34
CCOC(=O)N[C@H]1CC[C@H](CCN2CCc3ccccc3C2)CC1 7.23

---

test-system: D(2) dopamine receptor (Homo sapiens)
procedure-text: Agonist activity at human dopamine D2L receptor expressed in CHO […] assessed as phosphorylation of ERK1/2 by Alphascreen assay
Type: cell-based
recorded-endpoint: pKA

CC(C)(C)OC(=O)N[C@H]1CC[C@H](CN2CCN(c3cccc(Cl)c3Cl)CC2)CC1 5.43
CC(C)(C)OC(=O)NC[C@H]1CC[C@H](CN2CCN(c3cccc(Cl)c3Cl)CC2)CC1 6.86
CC(C)(C)OC(=O)N[C@H]1CC[C@H](CCN2CCN(c3cccc(Cl)c3Cl)CC2)CC1 7.51
CC(C)(C)OC(=O)NC[C@H]1CC[C@H](CN2CCc3ccccc3C2)CC1 6.69
CN(C)C(=O)NC[C@H]1CC[C@H](CN2CCN(c3cccc(Cl)c3Cl)CC2)CC1 7.56
CC(C)(C)OC(=O)N[C@H]1CC[C@H](CN2CCc3ccccc3C2)CC1 7.48
CC(C)(C)OC(=O)N[C@H]1CC[C@@H](CCN2CCN(c3cccc(Cl)c3Cl)CC2)CC1 6.79
CN(C)C(=O)N[C@H]1CC[C@H](CCN2CCN(c3cccc(Cl)c3Cl)CC2)CC1 7.61
CC(C)(C)OC(=O)N[C@H]1CC[C@H](CCN2CCc3ccccc3C2)CC1 7.1
